These measurements were taken from paper PMC4755721.

- target.system: P450 3A4 (Homo sapiens, UniProt P08684)
- Sequence (P08684 whole entry): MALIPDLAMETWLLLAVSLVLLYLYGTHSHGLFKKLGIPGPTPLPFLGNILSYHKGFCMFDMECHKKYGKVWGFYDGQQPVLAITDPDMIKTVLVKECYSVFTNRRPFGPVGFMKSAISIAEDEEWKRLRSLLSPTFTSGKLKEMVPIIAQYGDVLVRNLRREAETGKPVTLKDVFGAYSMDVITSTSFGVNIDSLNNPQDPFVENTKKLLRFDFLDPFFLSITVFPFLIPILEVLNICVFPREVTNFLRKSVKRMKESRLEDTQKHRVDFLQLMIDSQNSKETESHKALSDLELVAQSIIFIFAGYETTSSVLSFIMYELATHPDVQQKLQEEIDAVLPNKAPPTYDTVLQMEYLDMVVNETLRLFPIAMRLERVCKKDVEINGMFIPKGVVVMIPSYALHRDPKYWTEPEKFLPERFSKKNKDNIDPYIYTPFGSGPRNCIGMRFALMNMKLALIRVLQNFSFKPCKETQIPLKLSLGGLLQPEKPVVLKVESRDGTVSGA
- method.summary: Spectral binding titration with P450 3A4
- experimental.setup: P450 3A4
ΔAmax / Ks by entry:
Write the value as a bare number.

Below, 3 compounds whose answers are already recorded.
>  <compound>
OC1Cc2cccc3cccc1c23 (stereo not shown)

>  <measurement.type>
ΔAmax / Ks

>  <obs.value>
0.002

$$$$
>  <compound>
c1cc2c3c(cccc3c1)CC2

>  <measurement.type>
ΔAmax / Ks

>  <obs.value>
0.002

$$$$
>  <compound>
c1cc2c3c(cccc3c1)C1OC21 (stereo not shown)

>  <measurement.type>
ΔAmax / Ks

>  <obs.value>
0.007

$$$$

Query: ΔAmax / Ks for C1=Cc2cccc3cccc1c23 ?
Reply: 0.002

====

# maps each entry to its Kd
- target.system: P450 3A4 (Homo sapiens, UniProt P08684)

>  <compound>
C1=Cc2cccc3cccc1c23

>  <target.system>
P450 3A4 (Homo sapiens, UniProt P08684)

>  <obs.value>
13 µM

$$$$

Query: What does the record list as Kd for c1cc2c3c(cccc3c1)CC2 ?
Reply: 19 µM

Query: Reported Kd for c1cc2c3c(cccc3c1)C1OC21 (stereo not shown) : what is it?
Reply: 6.2 µM

Query: GET /values?readout=Kd&item= OC1Cc2cccc3cccc1c23 (stereo not shown)
Reply: 7.8 µM

====

Kd: recorded values
- target.system: P450 2A13 (Homo sapiens, UniProt Q16696)
- Sequence (Q16696 1-494): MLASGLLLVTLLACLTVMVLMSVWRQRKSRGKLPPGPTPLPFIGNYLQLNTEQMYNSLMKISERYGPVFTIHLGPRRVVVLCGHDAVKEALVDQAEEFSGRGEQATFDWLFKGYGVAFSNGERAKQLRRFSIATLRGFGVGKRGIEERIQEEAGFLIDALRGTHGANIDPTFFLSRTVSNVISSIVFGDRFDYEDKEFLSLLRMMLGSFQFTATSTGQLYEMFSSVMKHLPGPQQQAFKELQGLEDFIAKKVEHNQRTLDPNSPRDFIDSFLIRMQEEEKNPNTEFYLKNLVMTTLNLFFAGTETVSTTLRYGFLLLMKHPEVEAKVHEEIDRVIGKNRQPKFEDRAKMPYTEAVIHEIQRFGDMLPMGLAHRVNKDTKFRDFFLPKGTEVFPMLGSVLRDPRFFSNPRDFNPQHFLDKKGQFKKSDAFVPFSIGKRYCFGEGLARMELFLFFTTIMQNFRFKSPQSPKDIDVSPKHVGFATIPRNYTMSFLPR

>  <molecule>
c1cc2c3c(cccc3c1)C1OC21 (centres unmarked)

>  <Kd>
0.16 µM

$$$$

Query: Need Kd of OC1Cc2cccc3cccc1c23 (centres unmarked) , thanks.
Reply: 0.48 µM
